Assign MCC to each entry below.
assay: Cytotoxicity against human HEL cells assessed as alteration in cell morphology; type: cell-based
One number for each entry, in µM.

compound structure string: CCCCCCc1cc2cn(C/C=C3\OC(=O)C(OCc4ccccc4)=C3OCc3ccccc3)c(=O)nc2o1
measurement unit: µM
MCC: 100

Data request, read-out MCC, for CCCCCc1cc2cn(C/C=C3\OC(=O)C(OCc4ccccc4)=C3OCc3ccccc3)c(=O)nc2o1
100

----------
assay: Cytotoxicity against human HEL cells assessed as reduction of cell growth; assay type: cell-based
Provide the recorded CC50 for the entries that follow.
Numbers only, in µM.

Check out these entries, answers already filled in.
compound structure string: Nc1nc2c(ncn2COCCO)c(=O)[nH]1
CC50, µM: 545
//
compound structure string: Nc1nc2c(ncn2COC(CO)CO)c(=O)[nH]1
CC50, µM: 262
//
compound structure string: Nc1ccn(C[C@@H](CO)OCP(=O)(O)O)c(=O)n1
CC50, µM: 133

Field: next molecule
Can you look up the measured CC50 of O=c1[nH]c(=O)n([C@H]2C[C@H](O)[C@@H](CO)O2)cc1/C=C/Br for me?
270

----------
experiment: Cytotoxicity against human HEL cells assessed as alteration in cell morphology; format: cell-based
readout type: MCC (µM)
One number for each entry, in µM.

compound structure string: CCCCCCC#Cc1cn(C/C=C2\OC(=O)C(OCc3ccccc3)=C2OCc2ccccc2)c(=O)[nH]c1=O
observed result: 20
--
compound structure string: Cc1ccc(-c2cc3cn(C/C=C4\OC(=O)C(OCc5ccccc5)=C4OCc4ccccc4)c(=O)nc3o2)cc1
observed result: 100
--
compound structure string: CCCCc1cc2cn(C/C=C3\OC(=O)C(OCc4ccccc4)=C3OCc3ccccc3)c(=O)nc2o1
observed result: 20

// next entry
Sample CCCCCCCCc1cc2cn(C/C=C3\OC(=O)C(OCc4ccccc4)=C3OCc3ccccc3)c(=O)nc2o1 — what was its MCC?
100

----------
For each record, write down the corresponding MCC.
assay: Cytotoxicity against human HEL cells assessed as alteration in cell morphology; type: cell-based

Some solved entries appear below for comparison.
compound: CCCCCCCCC#Cc1cn(C/C=C2\OC(=O)C(OCc3ccccc3)=C2OCc2ccccc2)c(=O)[nH]c1=O
MCC: 100 µM
--
compound: C#CCCCc1cc2cn(C/C=C3\OC(=O)C(OCc4ccccc4)=C3OCc3ccccc3)c(=O)nc2o1
MCC: > 100 µM
--
compound: O=C1O/C(=C\Cn2cc(C#Cc3ccc(Br)cc3)c(=O)[nH]c2=O)C(OCc2ccccc2)=C1OCc1ccccc1
MCC: ≥ 4 µM
--
compound: Cc1ccc(C#Cc2cn(C/C=C3\OC(=O)C(OCc4ccccc4)=C3OCc3ccccc3)c(=O)[nH]c2=O)cc1
MCC: 60 µM

The following compounds each have a reported value; give each one's MCC.
1. CCCCCC#Cc1cn(C/C=C2\OC(=O)C(OCc3ccccc3)=C2OCc2ccccc2)c(=O)[nH]c1=O
2. CCCCc1ccc(-c2cc3cn(C/C=C4\OC(=O)C(OCc5ccccc5)=C4OCc4ccccc4)c(=O)nc3o2)cc1

1. 20 µM
2. ≥ 20 µM

Below are 2 compounds. Give each one its MCC.
1. O=C1O/C(=C\Cn2cc3cc(-c4ccc(Br)cc4)oc3nc2=O)C(OCc2ccccc2)=C1OCc1ccccc1
2. O=c1[nH]c(=O)n([C@H]2C[C@H](O)[C@@H](CO)O2)cc1/C=C/Br [BRIVUDINE]

1. ≥ 20 µM
2. ≥ 1200 µM
